The reported measurements were obtained from ChEMBL document CHEMBL1201861.

tested on: PA-1; assay: cells; assay type: functional, cell-based, Homo sapiens; conditions: pa-1;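 further: IC50 for suppression of PA-1 cell proliferation, determined with a cell viability read-out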
Description: SANGER: Inhibition of human PA-1 cell growth in a cell viability assay.
Measurement Name: IC50 (nM)
Please respond with the number in nM and leave the unit unwritten.

// fetch IC50 for "BLEOMYCIN" ; system: PA-1 2020

* * *

test system: TE-9; test: cells; type: functional, cell-based, Homo sapiens; settings: Homo sapiens, TE-9;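 further: cell growth inhibition, measured with a cell viability readout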
Description: SANGER: Inhibition of human TE-9 cell growth in a cell viability assay.
Structures can show the parent of a compound that is named as a salt.
Measurement Name: IC50 (nM)
Give the number; nM is assumed, so skip it.

Use the examples below as a reference point.
1) Cc1cc([N+](=O)[O-])ccc1NS(=O)(=O)c1cc(Cl)ccc1Cl | 2690
2) CC(C)c1ccccc1Cc1cc(C(=O)Nc2ccc(S(=O)(=O)c3ccccc3C(C)(C)C)cc2)c(O)c(O)c1O | 225
3) COC1=CC(c2cc3ccccc3[nH]2)=N/C1=C\c1[nH]c(C)cc1C [OBATOCLAX MESYLATE] | 233

Now look at this one.
Give measured IC50 for "C#Cc1cccc(Nc2ncnc3cc(OCCOC)c(OCCOC)cc23)c1" (TE-9). 1230

* * *

test system: MMAC-SF; assay: cells; assay type: functional, cell-based, Homo sapiens; settings: mmac-sf;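 further: growth inhibition of human MMAC-SF cells, read out with a cell viability assay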
Description: SANGER: Inhibition of human MMAC-SF cell growth in a cell viability assay.
Measurement Name: pIC50
Here pIC50 is given on a logarithmic scale as minus log10 of the concentration in mol/L.

Read off the recorded pIC50 for "BLEOMYCIN" 4.67

* * *

system: MOLT-13; assay: cells; format: functional, cell-based, Homo sapiens; settings: Homo sapiens, MOLT-13
Description: SANGER: Inhibition of human MOLT-13 cell growth in a cell viability assay.
Reported IC50 is given for each of the following molecules.
Just the number in µM, nothing appended.

1) CC(=O)O[C@H]1C(=O)[C@@]2(C)[C@H]([C@H](OC(=O)c3ccccc3)[C@]3(O)C[C@H](OC(=O)[C@H](O)[C@@H](NC(=O)c4ccccc4)c4ccccc4)C(C)=C1C3(C)C)[C@]1(OC(C)=O)CO[C@@H]1C[C@@H]2O | 0.0164

# ---- query molecule ----
Note IC50 for the molecule shown: "CN(C)C(=N)NC(=N)N" 556

* * *

tested on: UMUC3; assay: cells; format: functional, cell-based, Homo sapiens; conditions: Homo sapiens, UMUC3
Description: SANGER: Inhibition of human UM-UC-3 cell growth in a cell viability assay.
pIC50: −log10 of the molar value.
Recorded pIC50 values for a group of compounds are listed next.

Worked examples, 3 compounds total:
1. Cc1cn(-c2cc(NC(=O)c3ccc(C)c(Nc4nccc(-c5cccnc5)n4)c3)cc(C(F)(F)F)c2)cn1 | < 5.70
2. CS(=O)(=O)c1ccc(C(=O)Nc2ccc(Cl)c(-c3ccccn3)c2)c(Cl)c1 | < 5.00
3. CC(C)CCN1c2nc(Nc3cc(F)c(O)c(F)c3)ncc2N(C)C(=O)C1C (centres undefined) | < 5.30

# ---- query compound ----
Give the value of pIC50 reported for the following: "CN(C)C(=N)NC(=N)N" 1.89

* * *

test system: D283 Med; test: cells; assay type: functional, cell-based, Homo sapiens; details: Homo sapiens, D283 Med
Description: SANGER: Inhibition of human D-283MED cell growth in a cell viability assay.
Listing of entries alongside the reported IC50.

Below: 2 compounds and their reported IC50.
1) Cc1ccc(-c2c(C(=O)CCl)n(CCCO)c3ncnc(N)c23)cc1 | > 4 µM
2) Nc1cccc2c1CN(C1CCC(=O)NC1=O)C2=O (stereo not drawn) [LENALIDOMIDE] | > 5 µM

Please find the next compound below.
Give the value of IC50 reported for the following: CCN(CC)CCNC(=O)c1c(C)[nH]c(/C=C2\C(=O)Nc3ccc(F)cc32)c1C [SUNITINIB] > 8 µM

* * *

tested on: NCI-H2126; assay: cells; type: functional, cell-based, Homo sapiens; details: Homo sapiens, NCI-H2126
Description: SANGER: Inhibition of human NCI-H2126 cell growth in a cell viability assay.
Measurement Name: pIC50
Remember, pIC50 is on a log scale: it is -log10 of the molar concentration.

1. CO[C@H]1C[C@@H]2CC[C@@H](C)[C@@](O)(O2)C(=O)C(=O)N2CCCC[C@H]2C(=O)O[C@H]([C@H](C)C[C@@H]2CC[C@@H](OC(=O)C(C)(CO)CO)[C@H](OC)C2)CC(=O)[C@H](C)/C=C(\C)[C@@H](O)[C@@H](OC)C(=O)[C@H](C)C[C@H](C)/C=C/C=C/C=C/1C [TEMSIROLIMUS] | 7.24

Supply measured pIC50 of "CC(C)c1ccccc1Cc1cc(C(=O)Nc2ccc(S(=O)(=O)c3ccccc3C(C)(C)C)cc2)c(O)c(O)c1O" in your reply. 6.11

Read the entry COc1cccc2c1C(=O)c1c(O)c3c(c(O)c1C2=O)C[C@@](O)(C(=O)CO)C[C@@H]3O[C@H]1C[C@H](N)[C@H](O)[C@H](C)O1 [DOXORUBICIN] and write its reported pIC50. 6.72

* * *

target: KM-H2; experiment: cells; format: functional, cell-based, Homo sapiens; conditions: km-h2;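 further: growth inhibition of KM-H2 cells, read out by a cell viability assay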
Description: SANGER: Inhibition of human KM-H2 cell growth in a cell viability assay.
Measurement Name: pIC50
A value of pIC50 is the negative decimal logarithm of a concentration given in moles per litre.

1) CISPLATIN | 3.35

Here is another sequence to look at.
Entry "BLEOMYCIN" needs its pIC50 filled in; supply it. 5.16

* * *

tested on: MDA-MB-453; assay: cells; type: functional, cell-based, Homo sapiens; settings: Homo sapiens, MDA-MB-453
Description: SANGER: Inhibition of human MDA-MB-453 cell growth in a cell viability assay.
Measurement Name: IC50

For orientation, consider the following solved cases.
1. CC1(C)CNc2cc(NC(=O)c3cccnc3NCc3ccncc3)ccc21 [MOTESANIB] | > 2000 nM
2. Nc1ccn([C@@H]2O[C@H](CO)[C@@H](O)C2(F)F)c(=O)n1 [GEMCITABINE] | > 1020 nM
3. CCN(CC)CCCCNc1ncc2cc(-c3cc(OC)cc(OC)c3)c(NC(=O)NC(C)(C)C)nc2n1 [PD-173074] | > 2000 nM
4. CO[C@H]1C[C@@H]2CC[C@@H](C)[C@@](O)(O2)C(=O)C(=O)N2CCCC[C@H]2C(=O)O[C@H]([C@H](C)C[C@@H]2CC[C@@H](OC(=O)C(C)(CO)CO)[C@H](OC)C2)CC(=O)[C@H](C)/C=C(\C)[C@@H](O)[C@@H](OC)C(=O)[C@H](C)C[C@H](C)/C=C/C=C/C=C/1C [TEMSIROLIMUS] | > 200 nM

Entry Cc1cn(-c2cc(NC(=O)c3ccc(C)c(Nc4nccc(-c5cccnc5)n4)c3)cc(C(F)(F)F)c2)cn1 [NILOTINIB] needs its IC50 filled in; supply it. > 2000 nM

* * *

system: OAW-42; experiment: cells; type: functional, cell-based, Homo sapiens; details: oaw-42
Description: SANGER: Inhibition of human OAW-42 cell growth in a cell viability assay.
Measurement Name: pIC50
For clarity, pIC50 is expressed as the negative log10 of concentration in mol/L.

Give the reported pIC50 for this sequence. "CISPLATIN" 5.06

* * *

tested on: TK-10; assay: cells; format: functional, cell-based, Homo sapiens; conditions: tk-10;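 further: growth inhibition of TK-10 cells, read out in a cell viability assay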
Description: SANGER: Inhibition of human TK10 cell growth in a cell viability assay.
Measurement Name: pIC50
Scale: negative log10 of molar concentration, which is what pIC50 denotes.

Please report pIC50 for the following sequence: "CISPLATIN" 4.51

* * *

# key: entry, value: IC50
system: KLE; experiment: cells; assay type: functional, cell-based, Homo sapiens; conditions: Homo sapiens, KLE
Description: SANGER: Inhibition of human KLE cell growth in a cell viability assay.

Examples from the recorded data:
1. Nc1ccn([C@@H]2O[C@H](CO)[C@@H](O)C2(F)F)c(=O)n1 [GEMCITABINE] | 0.459 µM
2. Cn1cnc2c(F)c(Nc3ccc(Br)cc3Cl)c(C(=O)NOCCO)cc21 [SELUMETINIB] | > 4 µM
3. Oc1ccc2ccccc2c1SSc1c(O)ccc2ccccc12 | > 32 µM

Proceeding to the next compound to report its IC50.
GET IC50 where system = KLE and item = Nc1cccc2c1CN(C1CCC(=O)NC1=O)C2=O (centres undefined) [LENALIDOMIDE] > 5 µM

* * *

test system: C3A; experiment: cells; format: functional, cell-based, Homo sapiens; details: Homo sapiens, C3A
Description: SANGER: Inhibition of human C3A cell growth in a cell viability assay.
Structures can show the parent of a compound that is named as a salt.
IC50: recorded values
Your answer is read as µM, so omit the unit and give the number.

Solved cases (3 shown):
1. COC1=CC(c2cc3ccccc3[nH]2)=N/C1=C\c1[nH]c(C)cc1C [OBATOCLAX MESYLATE] | 0.374
2. CN(C)C(=N)NC(=N)N | 11300
3. Nc1ccn([C@@H]2O[C@H](CO)[C@@H](O)C2(F)F)c(=O)n1 | 0.00884

Look up and report measured IC50 for this entry: "Oc1ccc2ccccc2c1SSc1c(O)ccc2ccccc12" 30.3

Please look at this molecule and report its IC50: "CC(C)c1ccccc1Cc1cc(C(=O)Nc2ccc(S(=O)(=O)c3ccccc3C(C)(C)C)cc2)c(O)c(O)c1O" 1.82

* * *

Measured pIC50 by item
system: BC1 cell line; experiment: SANGER: Inhibition of human BC-1 cell growth in a cell viability assay.; type: functional, cell-based; conditions: Homo sapiens, BC1
Where a name gives a salt, the structure may show the parent alone.
# pIC50: negative log10 of molar concentration; output just the value

Some compounds with known pIC50 results, for comparison:
1) OCCCNc1cc(-c2ccnc(Nc3cccc(Cl)c3)n2)ccn1 | 7.16
2) COc1cc2ncn(-c3cc(OCc4ccccc4C(F)(F)F)c(C(N)=O)s3)c2cc1OC [GW843682X] | 6.61
3) COc1cccc2c1C(=O)c1c(O)c3c(c(O)c1C2=O)C[C@@](O)(C(=O)CO)C[C@@H]3O[C@H]1C[C@H](N)[C@H](O)[C@H](C)O1 | 7.06

Consider now this further compound.
Input COC1=CC(c2cc3ccccc3[nH]2)=N/C1=C\c1[nH]c(C)cc1C [OBATOCLAX MESYLATE] , output reported pIC50. 7.22
